The reported numbers originate from paper PMC5540273.

System: MAP3K3
reported conditions: concentration: 1 μM,replicates: in singlicate; n = 1;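 note: KINOMEscan kinase panel screen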
property label: %Inh (%)
Provide the reading as a plain figure in %.

Answered cases to consult:
CCN(CC)CCCCNc1ncc2cc(-c3c(Cl)cccc3Cl)c(NC(=O)NC(C)(C)C)nc2n1 :: 89
CN(C)CCOc1ccc(-c2cc(-c3c[nH]nc3-c3ccccn3)ccn2)cc1 :: 9
NC(=O)c1cc(-c2ccccc2)cc2c(C3CCNCC3)c[nH]c12 :: 20

Now let's try a different one.
Exercise: Provide value of %Inh for this record tested with MAP3K3: C[C@@H](Oc1cc(-c2cnn(C3CCNCC3)c2)cnc1N)c1c(Cl)ccc(F)c1Cl
Solution: 98.3

----------
Tested on: NEK1
reported conditions: concentration: 1 μM,replicates: in singlicate; n = 1
property label: %Inh
Write your answer as a measured quantity: the number, then the unit.

Cc1cc(C(=O)Nc2ccc(Oc3ccc4nc(NC(=O)C5CC5)cn4n3)cc2)nn1-c1ccccc1 :: 1%
CC(C)Nc1cc(-c2ccc3c(N)n[nH]c3c2)nc(N)n1 :: 0%
CN(C)CC(O)COc1ccc(Nc2nccc(-c3cnn4nc(N5CCOCC5)ccc34)n2)cc1 (stereo not drawn) :: 44%
Cc1cc2cn[nH]c2cc1-c1cccc2c(N)c(C(N)=O)nnc12 :: 0%
CCN(CC)CCOc1ccc(Nc2ncc3cc(-c4c(Cl)cccc4Cl)c(=O)n(C)c3n2)cc1 :: 34%
Cc1ccc2c(-c3ccncc3)c(-c3ccc(F)cc3)nn2c1.Cl :: 0%

Exercise: Would you kindly share the measured %Inh for CC(C)N1C(=O)Cc2cc(Nc3ncc(C(F)(F)F)c(NCc4cccc(S(C)(=O)=O)c4)n3)ccc21 ?
Solution: 0%

Exercise: Next: CCn1c(-c2nonc2N)nc2c(C#CC(C)(C)O)nc(OCCN)cc21.Cl.Cl
Solution: 0%

Exercise: Next: O=C(NCCCN1CCOC1=O)c1cnc(NCc2cc(Cl)ccc2Cl)nc1NC1CCCC1
Solution: 0%

----------
Measured %Inh, listed per entry.
Tested on: CDK3
reported conditions: concentration: 1 μM,replicates: in singlicate; n = 1
Provide the reading as a plain figure in %.

Answered cases to consult:
CCN(CC)CCOc1ccc(Nc2ncc3cc(-c4c(Cl)cccc4Cl)c(=O)n(C)c3n2)cc1 :: 9
C[C@@H]1CCN(C(=O)CC#N)C[C@@H]1N(C)c1ncnc2[nH]ccc12 :: 14
Cc1ccc2c(-c3ccncc3)c(-c3ccc(F)cc3)nn2c1.Cl :: 0
O=C(NCCCN1CCOC1=O)c1cnc(NCc2cc(Cl)ccc2Cl)nc1NC1CCCC1 :: 14
Cc1cc2cn[nH]c2cc1-c1cccc2c(N)c(C(N)=O)nnc12 :: 43

Now let's try a different one.
Exercise: Would you kindly share the measured %Inh for CCN(CC)CCCCNc1ncc2cc(-c3c(Cl)cccc3Cl)c(NC(=O)NC(C)(C)C)nc2n1 ?
Solution: 10

----------
System: SYK
reported conditions: concentration: 1 μM,replicates: in singlicate; n = 1
property label: %Inh
Write your answer as a measured quantity: the number, then the unit.

Answered cases to consult:
C=CC(=O)Nc1cc2c(Nc3ccc(F)c(Cl)c3)ncnc2cc1OCCCN1CCOCC1 [GW781483] :: 6%
Cl.Cl.NC[C@H](Cc1ccc(C(F)(F)F)cc1)NC(=O)c1cc(Br)c(-c2ccnc3[nH]ccc23)s1 [GSK1487252] :: 10%
Cc1occc1-c1nc(N)c(OC[C@@H](N)Cc2c[nH]c3ccccc23)cc1-c1cc2c(C)n[nH]c2cn1 [GSK1660450] :: 0%
O=C(NCCNc1ccnc(NCc2ccc(F)cc2)n1)c1cc2ccccc2s1 [GSK1379944] :: 14%
CCN(CC)CCOc1ccc(Nc2ncc3cc(-c4c(Cl)cccc4Cl)c(=O)n(C)c3n2)cc1 [SB-601273] :: 89%

Exercise: Would you kindly share the measured %Inh for CC(C)N1C(=O)Cc2cc(Nc3ncc(C(F)(F)F)c(NCc4cccc(S(C)(=O)=O)c4)n3)ccc21 ?
Solution: 87%

Exercise: Next: Cl.Cl.NC[C@H](CC1CCCCC1)NC(=O)c1cc(Br)c(-c2ccnc3[nH]ccc23)s1 [GSK1581427]
Solution: 19%

Exercise: Next: CNC(=O)c1ccccc1Sc1ccc2c(/C=C/c3ccccn3)n[nH]c2c1
Solution: 5%

----------
Measured %Inh, listed per entry.
System: GRK7
reported conditions: concentration: 1 μM,replicates: in singlicate; n = 1
Provide the reading as a plain figure in %.

Cc1n[nH]c2ccc(-c3cc(OC[C@@H](N)Cc4ccccc4)cnc3-c3ccoc3)cc12.O=C(O)C(F)(F)F.O=C(O)C(F)(F)F :: 0
CN(C)CC(O)COc1ccc(Nc2nccc(-c3cnn4nc(N5CCOCC5)ccc34)n2)cc1 (stereo not shown) :: 37
Cc1ccc2c(-c3ccncc3)c(-c3ccc(F)cc3)nn2c1.Cl :: 66
CCN(CC)CCOc1ccc(Nc2ncc3cc(-c4c(Cl)cccc4Cl)c(=O)n(C)c3n2)cc1 :: 0
Nc1nc(Nc2ccccc2)cc(-c2ccc3c(N)n[nH]c3c2)n1 :: 0

Exercise: Would you kindly share the measured %Inh for CC(C)Nc1cc(-c2ccc3c(N)n[nH]c3c2)nc(N)n1 ?
Solution: 0

Exercise: Next: Cl.Cl.NC[C@H](Cc1ccc(C(F)(F)F)cc1)NC(=O)c1cc(Br)c(-c2ccnc3[nH]ccc23)s1
Solution: 95.3

Exercise: Next: COc1ccc(C[C@@H](CN)NC(=O)c2cc(Br)c(-c3ccnc4[nH]ccc34)s2)cc1.Cl.Cl
Solution: 98.8

Exercise: Next: CCN(CC)CCCCNc1ncc2cc(-c3c(Cl)cccc3Cl)c(NC(=O)NC(C)(C)C)nc2n1
Solution: 0

Exercise: Next: Cl.Cl.Nc1nc(-c2ccc3c(N)n[nH]c3c2)cc(N2CCCC(NC(=O)c3ccccc3)C2)n1 (stereo not shown)
Solution: 0

Exercise: Next: C=CC(=O)Nc1cc2c(Nc3ccc(F)c(Cl)c3)ncnc2cc1OCCCN1CCOCC1
Solution: 0

Exercise: Next: Cl.Cl.NC[C@H](CC1CCCCC1)NC(=O)c1cc(Br)c(-c2ccnc3[nH]ccc23)s1
Solution: 90

Exercise: Next: CCn1c(-c2nonc2N)nc2c(C#CC(C)(C)O)nc(OCCN)cc21.Cl.Cl
Solution: 0

Exercise: Next: CC(C)N1C(=O)Cc2cc(Nc3ncc(C(F)(F)F)c(NCc4cccc(S(C)(=O)=O)c4)n3)ccc21
Solution: 10

Exercise: Next: O=C(NCCCN1CCOC1=O)c1cnc(NCc2cc(Cl)ccc2Cl)nc1NC1CCCC1
Solution: 0

Exercise: Next: Cc1ccc(-n2nc(C(C)(C)C)cc2NC(=O)Nc2ccc(OCCN3CCOCC3)c3ccccc23)cc1
Solution: 0

----------
Test system: HIPK3
reported conditions: concentration: 1 μM,replicates: in singlicate; n = 1
property label: %Inh (%)
Provide the reading as a plain figure in %.

C[C@H]1Oc2cc(cnc2N)-c2c(nn(C)c2C#N)CN(C)C(=O)c2ccc(F)cc21 :: 0
Cc1cc2cn[nH]c2cc1-c1cccc2c(N)c(C(N)=O)nnc12 :: 25
CCN(CC)CCOc1ccc(Nc2ncc3cc(-c4c(Cl)cccc4Cl)c(=O)n(C)c3n2)cc1 :: 0
CNC(=O)c1ccccc1Sc1ccc2c(/C=C/c3ccccn3)n[nH]c2c1 :: 6
Cc1ccc(-n2nc(C(C)(C)C)cc2NC(=O)Nc2ccc(OCCN3CCOCC3)c3ccccc23)cc1 :: 0

Now let's try a different one.
Exercise: Provide value of %Inh for this record tested with HIPK3: CC(C)Nc1cc(-c2ccc3c(N)n[nH]c3c2)nc(N)n1
Solution: 3

----------
Tested on: RIPK4
reported conditions: concentration: 1 μM,replicates: in singlicate; n = 1
property label: %Inh (%)
Provide the reading as a plain figure in %.

Answered cases to consult:
C[C@@H](Oc1cc(-c2cnn(C3CCNCC3)c2)cnc1N)c1c(Cl)ccc(F)c1Cl :: 34
Cc1ccc2c(-c3ccncc3)c(-c3ccc(F)cc3)nn2c1.Cl :: 0
C[C@@H]1CCN(C(=O)CC#N)C[C@@H]1N(C)c1ncnc2[nH]ccc12 :: 0
Cl.Cl.Nc1nc(-c2ccc3c(N)n[nH]c3c2)cc(N2CCCC(NC(=O)c3ccccc3)C2)n1 (centres unmarked) :: 39

Exercise: Would you kindly share the measured %Inh for CN(C)CCOc1ccc(-c2cc(-c3c[nH]nc3-c3ccccn3)ccn2)cc1 ?
Solution: 16

----------
System: PKN1
reported conditions: concentration: 1 μM,replicates: in singlicate; n = 1
Measured %Inh, listed per entry.

Exercise: Would you kindly share the measured %Inh for Cc1n[nH]c2ccc(-c3cc(OC[C@@H](N)Cc4ccccc4)cnc3-c3ccoc3)cc12.O=C(O)C(F)(F)F.O=C(O)C(F)(F)F [GSK507358] ?
Solution: 33%

Exercise: Next: CC(C)Nc1cc(-c2ccc3c(N)n[nH]c3c2)nc(N)n1 [GSK2221681]
Solution: 29%

Exercise: Next: Cl.Cl.NC[C@H](Cc1ccc(C(F)(F)F)cc1)NC(=O)c1cc(Br)c(-c2ccnc3[nH]ccc23)s1 [GSK1487252]
Solution: 12%

Exercise: Next: Cl.Cl.NC[C@H](CC1CCCCC1)NC(=O)c1cc(Br)c(-c2ccnc3[nH]ccc23)s1 [GSK1581427]
Solution: 31%
